- experimentalProtocol: Plasma pharmacokinetics of buserelin after i.m. administration in pigs
- Type: in vivo
- assayContext: female, Danish Landrance × Yorkshire × Duroc, pig, plasma, im, 1 mg per pig, single i.m. dose 1 mg per pig, plasma, mean ± SD, n = 5, read-out: MRT0-t

compound: CCNC(=O)[C@@H]1CCCN1C(=O)[C@H](CCCNC(=N)N)NC(=O)[C@H](CC(C)C)NC(=O)[C@@H](COC(C)(C)C)NC(=O)[C@H](Cc1ccc(O)cc1)NC(=O)[C@H](CO)NC(=O)[C@H](Cc1c[nH]c2ccccc12)NC(=O)[C@H](Cc1cnc[nH]1)NC(=O)[C@@H]1CCC(=O)N1 [buserelin, Buserelin]
MRT [h]: 2.13

---

- experimentalProtocol: Plasma pharmacokinetics of buserelin after i.m. administration in cows
- Type: in vivo
- assayContext: female, Holstein, im, single i.m. dose 3 mg per cow, plasma, mean ± SD, n = 5
measuredQuantity: CL/F (mL/min)

compound: CCNC(=O)[C@@H]1CCCN1C(=O)[C@H](CCCNC(=N)N)NC(=O)[C@H](CC(C)C)NC(=O)[C@@H](COC(C)(C)C)NC(=O)[C@H](Cc1ccc(O)cc1)NC(=O)[C@H](CO)NC(=O)[C@H](Cc1c[nH]c2ccccc12)NC(=O)[C@H](Cc1cnc[nH]1)NC(=O)[C@@H]1CCC(=O)N1 [buserelin, Buserelin]
measuredQuantity: CL/F
measurement: 9080

---

- experimentalProtocol: Plasma pharmacokinetics of buserelin after i.m. administration in pigs
- Type: in vivo
- assayContext: female, Danish Landrance × Yorkshire × Duroc, im, single i.m. dose 1 mg per pig, plasma, mean ± SD, n = 5
measuredQuantity: CL/F (mL/min)

compound: CCNC(=O)[C@@H]1CCCN1C(=O)[C@H](CCCNC(=N)N)NC(=O)[C@H](CC(C)C)NC(=O)[C@@H](COC(C)(C)C)NC(=O)[C@H](Cc1ccc(O)cc1)NC(=O)[C@H](CO)NC(=O)[C@H](Cc1c[nH]c2ccccc12)NC(=O)[C@H](Cc1cnc[nH]1)NC(=O)[C@@H]1CCC(=O)N1 [buserelin, Buserelin]
units: mL/min
measurement: 686

---

- experimentalProtocol: Plasma pharmacokinetics of buserelin after i.m. administration in pigs
- Format: in vivo
- assayContext: female, Danish Landrance × Yorkshire × Duroc, im, single i.m. dose 1 mg per pig, plasma, UPLC-MS/MS, non-compartmental, mean ± SD, n = 5
measuredQuantity: Cmax

molecule: CCNC(=O)[C@@H]1CCCN1C(=O)[C@H](CCCNC(=N)N)NC(=O)[C@H](CC(C)C)NC(=O)[C@@H](COC(C)(C)C)NC(=O)[C@H](Cc1ccc(O)cc1)NC(=O)[C@H](CO)NC(=O)[C@H](Cc1c[nH]c2ccccc12)NC(=O)[C@H](Cc1cnc[nH]1)NC(=O)[C@@H]1CCC(=O)N1 [buserelin, Buserelin]
measuredQuantity: Cmax
measurement: 11 ng/mL

---

- experimentalProtocol: Plasma pharmacokinetics of buserelin after i.m. administration in pigs
- Format: in vivo
- assayContext: female, Danish Landrance × Yorkshire × Duroc, im, single i.m. dose 1 mg per pig, plasma, mean ± SD, n = 5

molecule: CCNC(=O)[C@@H]1CCCN1C(=O)[C@H](CCCNC(=N)N)NC(=O)[C@H](CC(C)C)NC(=O)[C@@H](COC(C)(C)C)NC(=O)[C@H](Cc1ccc(O)cc1)NC(=O)[C@H](CO)NC(=O)[C@H](Cc1c[nH]c2ccccc12)NC(=O)[C@H](Cc1cnc[nH]1)NC(=O)[C@@H]1CCC(=O)N1
Vd/F (L): 80.5

---

- experimentalProtocol: Plasma pharmacokinetics of buserelin after i.m. administration in pigs
- Assay type: in vivo
- assayContext: female, Danish Landrance × Yorkshire × Duroc, im, single i.m. dose 1 mg per pig, plasma, non-compartmental, mean ± SD, n = 5, read-out: t1/2 (elimination half-time) (converted)

molecule: CCNC(=O)[C@@H]1CCCN1C(=O)[C@H](CCCNC(=N)N)NC(=O)[C@H](CC(C)C)NC(=O)[C@@H](COC(C)(C)C)NC(=O)[C@H](Cc1ccc(O)cc1)NC(=O)[C@H](CO)NC(=O)[C@H](Cc1c[nH]c2ccccc12)NC(=O)[C@H](Cc1cnc[nH]1)NC(=O)[C@@H]1CCC(=O)N1
half-life / h: 1.29

---

- experimentalProtocol: Plasma pharmacokinetics of buserelin after i.m. administration in cows
- Type: in vivo
- assayContext: female, Holstein, im, single i.m. dose 3 mg per cow, plasma, 0 to last measurement point, mean ± SD, n = 5

molecule: CCNC(=O)[C@@H]1CCCN1C(=O)[C@H](CCCNC(=N)N)NC(=O)[C@H](CC(C)C)NC(=O)[C@@H](COC(C)(C)C)NC(=O)[C@H](Cc1ccc(O)cc1)NC(=O)[C@H](CO)NC(=O)[C@H](Cc1c[nH]c2ccccc12)NC(=O)[C@H](Cc1cnc[nH]1)NC(=O)[C@@H]1CCC(=O)N1
AUC(0-t) / ng·h/mL: 5.63
